targetUnderTest: T1, Rluc-ADGRG2-ΔGPS-β I730A (mouse, UniProt Q8CJ12-3 38-995, I730A)
T1 construct: ADGRG2 (GPR64), mouse, ADGRG2-ΔGPS-β: the entire ECD removed; source: HEK293, transfected, on cells; not shown: Rluc, N-terminal, kept
T1 sequence (Q8CJ12 other isoform, or with tags, fused parts or gaps I730A | I730A | I730A I730A): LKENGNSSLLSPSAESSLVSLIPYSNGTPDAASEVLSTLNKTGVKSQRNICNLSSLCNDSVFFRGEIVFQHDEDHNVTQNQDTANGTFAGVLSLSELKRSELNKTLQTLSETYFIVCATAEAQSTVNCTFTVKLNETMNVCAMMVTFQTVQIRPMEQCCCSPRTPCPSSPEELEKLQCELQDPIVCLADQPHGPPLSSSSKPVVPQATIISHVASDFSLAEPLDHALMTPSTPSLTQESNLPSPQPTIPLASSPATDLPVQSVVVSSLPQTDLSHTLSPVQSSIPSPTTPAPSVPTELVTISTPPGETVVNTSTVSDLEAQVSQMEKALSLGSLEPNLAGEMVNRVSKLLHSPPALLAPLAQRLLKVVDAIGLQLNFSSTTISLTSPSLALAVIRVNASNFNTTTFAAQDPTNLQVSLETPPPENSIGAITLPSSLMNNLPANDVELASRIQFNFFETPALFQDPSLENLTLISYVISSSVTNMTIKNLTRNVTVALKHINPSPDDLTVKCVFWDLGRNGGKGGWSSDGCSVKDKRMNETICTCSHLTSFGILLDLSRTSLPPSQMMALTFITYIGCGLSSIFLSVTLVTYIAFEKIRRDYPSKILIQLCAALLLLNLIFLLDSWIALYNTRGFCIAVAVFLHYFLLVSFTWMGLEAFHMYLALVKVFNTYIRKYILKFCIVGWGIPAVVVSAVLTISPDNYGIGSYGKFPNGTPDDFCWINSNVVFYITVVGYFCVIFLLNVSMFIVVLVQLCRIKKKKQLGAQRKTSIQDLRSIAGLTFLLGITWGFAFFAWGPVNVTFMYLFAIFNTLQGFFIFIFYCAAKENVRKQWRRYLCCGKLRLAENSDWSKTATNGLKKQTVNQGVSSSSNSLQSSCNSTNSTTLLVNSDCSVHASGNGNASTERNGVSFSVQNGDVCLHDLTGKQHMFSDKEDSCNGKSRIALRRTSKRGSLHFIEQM
methodSummary: FRET or BRET; HEK293 cells transfected with Rluc-ADGRG2-ΔGPS-β WT or mutants, stimulated by increasing concentrations of FITC-conjugated VPM-p15; saturation curves fitted with GraphPad; each experiment repeated 6 times
conditionSet: one partner purified
Non-standard residues stand in square brackets, D forms with d. Primed or numbered codes have the meaning given here. No end group written: not given here. Phe(4-Me) = Cc1ccc(C[C@H](N)C(=O)O)cc1; FITC′ = not defined here
quantityMeasured: EC50 (µM)
Lab book: enter the figure in µM, no units written.

The measured EC50 associated with VS[Phe(4-Me)]GILLDLSRTSLP-{FITC′} [FITC-conjugated VPM-p15 (ADGRG2 Stachel peptide p15 T1V/F3Phe(4-Me))] reads 1.2

Cited source: paper PMC7948503
